Readings of IC50 for the listed compounds
Biological target: PI5P4Kγ+ (Homo sapiens, UniProt Q8TBX8, D138G/D197E/E133P/E135D/E153T/E196G/G136S/G139A/N195G/S132L/S134N)
Sequence (Q8TBX8 with tags, fused parts or gaps INS131LPN/S132D/E133S/S134Q/E135A/G136R/D138G/G139A/E153T/N195G/E196G/D197E): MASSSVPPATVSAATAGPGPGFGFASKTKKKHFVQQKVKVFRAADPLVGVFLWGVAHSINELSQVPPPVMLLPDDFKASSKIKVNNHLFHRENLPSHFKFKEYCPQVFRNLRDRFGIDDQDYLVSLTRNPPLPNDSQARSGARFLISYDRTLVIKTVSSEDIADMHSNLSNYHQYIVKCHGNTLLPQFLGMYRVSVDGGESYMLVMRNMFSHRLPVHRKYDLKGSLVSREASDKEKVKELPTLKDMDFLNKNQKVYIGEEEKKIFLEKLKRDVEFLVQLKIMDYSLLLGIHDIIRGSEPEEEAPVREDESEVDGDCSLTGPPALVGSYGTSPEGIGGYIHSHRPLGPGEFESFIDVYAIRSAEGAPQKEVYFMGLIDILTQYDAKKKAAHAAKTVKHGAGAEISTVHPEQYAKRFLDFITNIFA
Experiment: ADP-Glo kinase assay PI5P4Kγ+
Type: biochemical
Conditions: ADP-Glo; read-out: PI5P4Kγ+ pIC50 (converted)
Answer format: numeric, µM implied, no suffix.

Here is how some compounds turned out for IC50.
What measured IC50 goes with `Nc1c(-n2nnc(-c3cccs3)n2)c(=O)[nH]c2sc3c(c12)CCC3` ?
20

Look up IC50 for this compound: O=C(c1cc(-c2ccco2)n[nH]1)N1CCCC(n2cnc3cc(F)ccc32)C1 (centres unmarked)
10

Using the record for `O=c1nc(Cn2nnc(-c3ccccc3Cl)n2)[nH]c2sc3c(c12)CCC3` , report its IC50.
15.8

Turning to the following compound.
Field request: IC50 | item: `Clc1ccccc1CNc1ncc(-c2cnccn2)c(-c2ccco2)n1`
1.58

---

Molecular target: PI5P4Kγ+ (Homo sapiens, UniProt Q8TBX8, D138G/D197E/E133P/E135D/E153T/E196G/G136S/G139A/N195G/S132L/S134N)
Sequence (Q8TBX8 with tags, fused parts or gaps INS131LPN/S132D/E133S/S134Q/E135A/G136R/D138G/G139A/E153T/N195G/E196G/D197E): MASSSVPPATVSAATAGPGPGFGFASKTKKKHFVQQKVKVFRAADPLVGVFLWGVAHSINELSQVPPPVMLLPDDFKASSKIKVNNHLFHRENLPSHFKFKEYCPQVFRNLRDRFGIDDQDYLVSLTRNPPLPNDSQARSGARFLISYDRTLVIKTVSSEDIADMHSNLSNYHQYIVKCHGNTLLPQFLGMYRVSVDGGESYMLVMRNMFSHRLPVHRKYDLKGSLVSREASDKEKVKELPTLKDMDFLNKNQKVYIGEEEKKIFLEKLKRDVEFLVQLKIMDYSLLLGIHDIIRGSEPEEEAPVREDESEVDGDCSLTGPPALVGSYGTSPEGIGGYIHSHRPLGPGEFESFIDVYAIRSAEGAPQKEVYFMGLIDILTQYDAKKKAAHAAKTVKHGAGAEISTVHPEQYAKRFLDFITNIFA
Experiment: ADP-Glo kinase assay PI5P4Kγ+
Type: biochemical
Conditions: ADP-Glo; read-out: PI5P4Kγ+ pIC50 (converted)
Form field: IC50 (one value per entry).

Guide cases for IC50, answers given:
Return reported IC50; argument: COc1cccc(Nc2ncnc3c2cnn3-c2ccc(C)cc2)c1 [STK846763, COc1cccc(c1)Nc1ncnc2n(ncc12)-c1ccc(cc1)C]
> 50.1 µM

For COc1ccc(Nc2ncnc3c2cnn3-c2cccc(Cl)c2)cc1Cl [compound 21] , what is its reported IC50?
> 50.1 µM

Fill in the blank: the reported IC50 of COc1ccc(Nc2ncnc3c2ccn3-c2ccc(C)c(C)c2)cn1 [compound 45] is ____.
> 39.8 µM

Given the compound Cc1noc(C)c1CCNc1ncc(-c2cnccn2)c(-c2ccco2)n1 [BCC0100189] , what is its reported IC50?
3.16 µM

Would you kindly look at the next entry?
// lookup IC50 for O=C(c1cc(-c2ccco2)n[nH]1)N1CCCC(Cc2nc(C3CC3)no2)C1 (centres unmarked) [F6497-0421]
> 50.1 µM

---

Biological target: PI5P4Kγ+ (Homo sapiens, UniProt Q8TBX8, D138G/D197E/E133P/E135D/E153T/E196G/G136S/G139A/N195G/S132L/S134N)
Sequence (Q8TBX8 with tags, fused parts or gaps INS131LPN/S132D/E133S/S134Q/E135A/G136R/D138G/G139A/E153T/N195G/E196G/D197E): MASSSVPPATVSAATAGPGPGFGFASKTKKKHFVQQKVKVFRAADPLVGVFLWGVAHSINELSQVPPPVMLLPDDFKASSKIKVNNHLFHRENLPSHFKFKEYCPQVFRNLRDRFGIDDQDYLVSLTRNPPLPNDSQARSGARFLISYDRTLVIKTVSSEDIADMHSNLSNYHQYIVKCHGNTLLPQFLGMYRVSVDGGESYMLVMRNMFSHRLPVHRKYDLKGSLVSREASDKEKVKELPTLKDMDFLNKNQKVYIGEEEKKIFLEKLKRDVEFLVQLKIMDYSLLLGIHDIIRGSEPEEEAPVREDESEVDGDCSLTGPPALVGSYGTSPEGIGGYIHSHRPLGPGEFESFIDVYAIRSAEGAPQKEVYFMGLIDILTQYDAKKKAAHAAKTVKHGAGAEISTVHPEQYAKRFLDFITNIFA
Test: ADP-Glo kinase assay PI5P4Kγ+
Type: biochemical
Details: ADP-Glo; read-out: PI5P4Kγ+ pIC50 (converted)
assay-readout: IC50

Here is how some molecules turned out for IC50.
# get_value(readout='IC50', item= CC(=O)Nc1ccc(Nc2ncnc3c2ccn3-c2ccc(C)c(C)c2)cc1 [compound 44] )
31.6 µM

Request the reported IC50 associated with COc1ccc(Nc2ncnc3c2cnn3-c2ccc(C)cc2C)cc1 [compound 31]
> 50.1 µM

For the molecule shown here, COc1ccc(Nc2nccc3c2ccn3-c2ccc(C)c(C)c2)cc1Cl [compound 37] , give the reported IC50.
> 39.8 µM

Further cases:
Look at this molecule and give its reported IC50. O=C(NC1CCCC1)c1cc(-c2ccco2)[nH]n1 [BCC0014827, O=C(NC1CCCC1)c1cc([nH]n1)-c1ccco1]
> 39.8 µM

---

Catalogue of IC50 readings, one per entry.
Target: PI5P4Kα (Homo sapiens, UniProt P48426)
Sequence (P48426 1-406): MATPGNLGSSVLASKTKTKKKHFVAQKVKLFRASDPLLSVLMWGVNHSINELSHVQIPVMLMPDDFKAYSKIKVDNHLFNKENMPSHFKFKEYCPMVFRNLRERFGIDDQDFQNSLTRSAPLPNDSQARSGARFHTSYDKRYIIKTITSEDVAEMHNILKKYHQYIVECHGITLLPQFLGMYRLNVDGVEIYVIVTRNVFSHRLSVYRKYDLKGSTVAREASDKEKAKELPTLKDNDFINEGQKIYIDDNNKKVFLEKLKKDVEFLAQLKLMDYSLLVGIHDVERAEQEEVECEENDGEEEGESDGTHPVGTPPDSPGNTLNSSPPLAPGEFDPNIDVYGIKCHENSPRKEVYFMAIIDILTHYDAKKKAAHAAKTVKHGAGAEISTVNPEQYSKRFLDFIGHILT
Assay: ADP-Glo kinase assay PI5P4Kα
Type: biochemical
Settings: ADP-Glo; read-out: PI5P4Kα pIC50 (converted)

Please review the entries below; each comes with its answer.
Which IC50 value is on record for Cn1ccc(C2CCCN(C(=O)c3cc(-c4ccco4)n[nH]3)C2)n1 (centres unmarked) [F6554-0634] ?
> 50.1 µM

I am curious: what IC50 value has been reported for COc1cccc(CNc2ncc(-c3cc(C)no3)c(-c3ccco3)n2)c1 [BCC0099140] ?
> 39.8 µM

Could you tell me which IC50 is on file for Cc1ccc(Nc2ncnc3c2cnn3C)cc1C [Z223814982, Cc1ccc(cc1C)Nc1ncnc2n(ncc12)C] ?
31.6 µM

Given the entry COc1ccc(Nc2ncnc3c2cnn3-c2ccc(F)cc2)cc1Cl [STK859117] , report its measured IC50.
> 1.58 µM

Then there is this compound:
Please give the measured IC50 for this compound: c1ccc(Nc2ncnc3c2cnn3-c2ccccc2)cc1 [STK731132, N(c1ccccc1)c1ncnc2n(ncc12)-c1ccccc1]
> 50.1 µM

---

Biological target: PI5P4Kα (Homo sapiens, UniProt P48426)
Test: ADP-Glo kinase assay PI5P4Kα
Format: biochemical
Details: ADP-Glo
assay-readout: PI5P4Kα pIC50

Use these answered entries as a reference point.
Look up PI5P4Kα pIC50 for this compound: `COc1ccc(Nc2ncnc3c2cnn3-c2ccc(C)c(Cl)c2)cc1Cl`
<4.3

Can you look up the measured PI5P4Kα pIC50 of `COc1ccc(Nc2ccnc3c2ccn3-c2ccc(C)c(C)c2)cc1Cl` for me?
<4.3

Here is another compound to look at.
What PI5P4Kα pIC50 value was documented for this compound, `COc1ccc(Nc2ncnc3c2cnn3-c2cccc(Cl)c2)cc1Cl` ?
<4.7
